ASSAY_PROCEDURE: Pharmacokinetics of Compound 4 in mice (IV and PO)
Format: in vivo, BALB/c nude female mice
SETTINGS: female, BALB/c nude, mouse, plasma, oral, 20 mg/kg, 20 mg/kg PO, 2 hr, mean; read-out: Plasma concentration Mean PO
MEASURE: concentration at 2 hr (ng/mL)
The response must be a number in ng/mL with no trailing unit.

Q: Reported concentration at 2 hr for NCCCOc1cc2ccccc2cc1C(=O)NCCCOc1cc2ccccc2cc1C(=O)Nc1ccc(Cl)cc1O [Compound 4] : what is it?
Result: 232

* * *

ASSAY_PROCEDURE: Pharmacokinetics of Compound 4 in mice (IV and PO)
Format: in vivo, BALB/c nude female mice
SETTINGS: female, BALB/c nude, mouse, plasma, intravenous, 2 mg/kg, 2 mg/kg IV, 0.5 hr, mean; read-out: Plasma concentration Mean IV
MEASURE: concentration at 0.5 hr (ng/mL)
The response must be a number in ng/mL with no trailing unit.

Q: Reported concentration at 0.5 hr for NCCCOc1cc2ccccc2cc1C(=O)NCCCOc1cc2ccccc2cc1C(=O)Nc1ccc(Cl)cc1O : what is it?
Result: 1090
